assay: AUC in rat; format: ADME; set-up: concentration or dose not given beside the values; conditions: in vivo
Quick list: AUC per entry.

smiles-string: COc1ccc2c(c1)C(=O)N(C[C@@]1(c3cc4nc(-c5cn[nH]c5)ccc4o3)NC(=O)NC1=O)C2
AUC, µM·h: 0.1
--
smiles-string: COc1ccc2c(c1)C(=O)N(C[C@@]1(c3cn4ccsc4n3)NC(=O)NC1=O)C2
AUC, µM·h: 2.2
--
smiles-string: COc1ccc2c(c1)C(=O)N(C[C@@]1(c3cc4cncc(F)c4o3)NC(=O)NC1=O)C2
AUC, µM·h: 2.7
--
smiles-string: COc1ccc2c(c1F)C(=O)N(C[C@@]1(c3cc4nc(N5CCC(N(C)C)CC5)ccc4o3)NC(=O)NC1=O)C2
AUC, µM·h: 0.04
--
smiles-string: COc1ccc2c(c1)C(=O)N(C[C@@]1(c3cc4cnc(C(F)(F)F)cc4o3)NC(=O)NC1=O)C2
AUC, µM·h: 19.3
--
smiles-string: COc1ccc2c(c1)C(=O)N(C[C@@]1(c3cc4ncccc4o3)NC(=O)NC1=O)C2
AUC, µM·h: 27
--
smiles-string: COc1ccc2c(c1)C(=O)N(C[C@@]1(c3cc4cncnc4o3)NC(=O)NC1=O)C2
AUC, µM·h: 2.2
--
smiles-string: COc1ccc2c(c1)C(=O)N(C[C@@]1(c3cc4c(C)nc(C)cc4o3)NC(=O)NC1=O)C2
AUC, µM·h: 4.2
--
smiles-string: COc1ccc2c(c1)C(=O)N(C[C@@]1(c3cc4ccccc4o3)NC(=O)NC1=O)C2
AUC, µM·h: 0.2

----------
test: Oral bioavailability in dog at 3 mg/kg; format: ADME, organism-based, Canis lupus familiaris; conditions: in vivo

smiles-string: COc1ccc2c(c1)C(=O)N(C[C@@]1(c3cc4ncccc4o3)NC(=O)NC1=O)C2
bioavailability, %: 82

smiles-string: COc1ccc2c(c1)C(=O)N(C[C@@]1(c3cc4cnccc4o3)NC(=O)NC1=O)C2
bioavailability, %: 98

----------
experiment: AUC in rat; type: ADME; design: concentration or dose not given beside the values; conditions: in vivo

smiles-string: COc1ccc2c(c1)C(=O)N(C[C@@]1(c3cc4c(C#N)nccc4o3)NC(=O)NC1=O)C2
AUC [µM·h]: 0.5
//
smiles-string: COc1ccc2c(c1)C(=O)N(C[C@@]1(c3cc4cnc(C)cc4o3)NC(=O)NC1=O)C2
AUC [µM·h]: 19.1
//
smiles-string: COc1ccc2c(c1)C(=O)N(C[C@@]1(c3cc4cncc(N)c4o3)NC(=O)NC1=O)C2
AUC [µM·h]: 0.1
//
smiles-string: COc1ccc2c(c1)C(=O)N(C[C@@]1(c3cc4nc(N(c5cn[nH]c5)C5CCN(C)CC5)ccc4o3)NC(=O)NC1=O)C2
AUC [µM·h]: 0.06
//
smiles-string: COc1ccc2c(c1)C(=O)N(C[C@@]1(c3cc4cncc(C)c4o3)NC(=O)NC1=O)C2
AUC [µM·h]: 8.7
//
smiles-string: COc1ccc2c(c1F)C(=O)N(C[C@@]1(c3cc4cnc(C)cc4o3)NC(=O)NC1=O)C2
AUC [µM·h]: 26.3
//
smiles-string: COc1ccc2c(c1)C(=O)N(C[C@@]1(c3cc4cnc(N5CCNC5=O)cc4o3)NC(=O)NC1=O)C2
AUC [µM·h]: 1.2
//
smiles-string: COc1ccc2c(c1)C(=O)N(C[C@@]1(c3cc4cccnc4o3)NC(=O)NC1=O)C2
AUC [µM·h]: 34
//
smiles-string: COc1ccc2c(c1F)C(=O)N(C[C@@]1(c3cc4nc(N5CCNC(=O)C5)ccc4o3)NC(=O)NC1=O)C2
AUC [µM·h]: 0.1
